molecular target: Cloned human M1 receptor (CHRM1) (Homo sapiens, UniProt P11229); construct: expressed in transfected cells; host or cells: HEK293; assay: CHRM1 Ca++ Flux Assay (HEK293 M1 cells, agonist mode); format: cell-based; settings: geometric mean if tested more than once, read-out: M1 FDSS EC50
Sequence (P11229 whole entry): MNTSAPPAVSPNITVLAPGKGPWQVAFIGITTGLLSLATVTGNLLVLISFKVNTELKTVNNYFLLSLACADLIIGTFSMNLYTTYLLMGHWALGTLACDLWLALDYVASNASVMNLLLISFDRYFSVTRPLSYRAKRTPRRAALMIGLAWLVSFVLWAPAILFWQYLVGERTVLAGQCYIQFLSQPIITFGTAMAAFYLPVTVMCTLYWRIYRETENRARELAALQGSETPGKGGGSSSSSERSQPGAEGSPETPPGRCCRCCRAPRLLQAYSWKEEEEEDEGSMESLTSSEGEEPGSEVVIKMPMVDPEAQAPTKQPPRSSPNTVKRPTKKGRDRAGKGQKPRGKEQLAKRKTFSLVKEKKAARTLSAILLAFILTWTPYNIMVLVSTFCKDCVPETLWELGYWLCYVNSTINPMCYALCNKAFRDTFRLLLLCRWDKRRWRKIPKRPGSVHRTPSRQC
pEC50: −log10 of the molar value.
Use 6 as the dividing line for pEC50, with the line itself on the YES side and lower values as NO.

Form field: pEC50 at least 6? Entry: CC(C)(C#N)COc1ccc(F)cc1C1CCN([C@@H]2COC3(C2)CN(c2nnco2)C3)CC1 [Example 1E]
YES

What about Fc1ccc(C2CCN([C@@H]3COC4(C3)CN(c3ncco3)C4)CC2)c(OC2COC2)c1 [Example 4S] ?
YES

What about CC(C)(O)COc1ccc(F)cc1C1CCN([C@@H]2COC3(C2)CN(c2ncns2)C3)CC1 [Example 5C] ?
NO

What about Fc1ccc(OC[C@H]2CCOC2)c(C2CCN([C@@H]3COC4(C3)CN(c3nncs3)C4)CC2)c1 [Example 5X] ?
NO

----------
Give measured EC50 for each item. Keep answers brief.
target: UniProt:P08172; assay: CHRM2 Ca++ Flux Assay (M2_CHO cells, agonist mode); conditions: M2 CHO cells, agonist mode; geometric mean if tested more than once; read-out: M2 FDSS EC50
Report as a plain number; the unit nM is understood.

Value lookup for EC50; key = Fc1ccc(O[C@H]2CCOC2)c(C2CCN([C@@H]3COC4(C3)CN(c3nncs3)C4)CC2)c1 [Example 5O]
1170

What about Fc1ccc(OC[C@H]2CCO2)c(C2CCN([C@@H]3COC4(C3)CN(c3nncs3)C4)CC2)c1.O=C(O)C(F)(F)F (single isomer, unassigned) [Example 2D] ?
446

What about Fc1ccc(OC2COC2)c(C2CCN([C@@H]3COC4(C3)CN(c3ncon3)C4)CC2)c1 [Example 6B] ?
390

What about COc1ccc(F)cc1C1CCN([C@@H]2COC3(C2)CN(c2nnco2)C3)CC1 [Example 1V] ?
598

What about Cc1nc(COc2ccccc2C2CCN([C@@H]3COC4(C3)CN(c3nncs3)C4)CC2)no1 [Example 5F] ?
73

----------
Target: human cloned CHRM2 receptor (Homo sapiens, UniProt P08172)
Construct: expressed in transfected cells; host or cells: CHO-K1 (M2_CHO)
Sequence (P08172 whole entry): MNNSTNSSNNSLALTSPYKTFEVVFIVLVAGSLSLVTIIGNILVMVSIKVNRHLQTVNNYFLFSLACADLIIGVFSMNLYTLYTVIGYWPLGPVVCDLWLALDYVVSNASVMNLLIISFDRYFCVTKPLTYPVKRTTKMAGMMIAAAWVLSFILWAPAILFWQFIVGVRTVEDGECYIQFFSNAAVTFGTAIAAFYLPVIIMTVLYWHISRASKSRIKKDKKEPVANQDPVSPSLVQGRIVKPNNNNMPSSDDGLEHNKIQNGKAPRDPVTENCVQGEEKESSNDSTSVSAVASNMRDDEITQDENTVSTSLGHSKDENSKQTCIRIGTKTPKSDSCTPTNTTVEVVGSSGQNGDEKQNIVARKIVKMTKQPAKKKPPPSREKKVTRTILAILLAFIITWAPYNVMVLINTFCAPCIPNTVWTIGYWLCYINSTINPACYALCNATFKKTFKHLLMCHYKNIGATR
Assay: CHRM2 Ca++ Flux Assay (M2_CHO cells, agonist mode)
Format: cell-based
Conditions: Percent Activity (PA) measured to EC100 of Carbachol; M2 CHO cells; read-out: M2 FDSS PA %
Method: The above examples were characterized by measuring the intracellular mobilization of Ca^++ ions caused by signaling events mediated by the receptor. […] Prior to the day of the assay, stable M2 CHO cells were thawed and plated on Greiner 384 well TC treated plate at a density of 12K cells/well and kept overnight in a humidified atmosphere (5% CO2) at 37° C. […] The Percent Activity (PA) was measured to EC100 of Carbachol. […]
Hi! Just check whether Emax is below 40%. Below gives Met, equal or above gives Not met.

Dear colleague, could you confirm whether Emax of c1ccc(C2CCN([C@@H]3COC4(C3)CN(c3nnco3)C4)CC2)c(O[C@@H]2CCOC2)c1 falls below 40%? Thanks.
Met

What about Fc1ccc(OC2COCOC2)c(C2CCN([C@@H]3COC4(C3)CN(c3nnco3)C4)CC2)c1 ?
Met

What about Fc1ccc(OC[C@H]2CCCO2)c(C2CCN([C@@H]3COC4(C3)CN(c3nnco3)C4)CC2)c1 ?
Met

What about c1ccc(C2CCN([C@@H]3COC4(C3)CN(c3ncco3)C4)CC2)c(C2CCOCC2)c1 ?
Met

What about Cc1nc(COc2ccccc2C2CCN([C@@H]3COC4(C3)CN(c3nncs3)C4)CC2)no1 ?
Not met

What about Fc1ccc(OC[C@H]2COCCO2)c(C2CCN([C@@H]3COC4(C3)CN(c3ncco3)C4)CC2)c1 ?
Met

What about Cc1nnc(COc2ccc(F)cc2C2CCN([C@@H]3COC4(C3)CN(c3nnco3)C4)CC2)s1 ?
Not met

What about CC(C)(O)COc1ccc(F)cc1C1CCN([C@@H]2COC3(C2)CN(c2ncco2)C3)CC1 ?
Met

----------
Give measured Emax for each item. Keep answers brief.
biological target: human cloned CHRM2 receptor (Homo sapiens); construct: expressed in transfected cells; host or cells: CHO-K1 (M2_CHO); assay: CHRM2 Ca++ Flux Assay (M2_CHO cells, agonist mode); assay type: cell-based; settings: Percent Activity (PA) measured to EC100 of Carbachol; M2 CHO cells; read-out: M2 FDSS PA %
Report as a plain number; the unit % is understood.

Value lookup for Emax; key = Fc1cc(OC2COC2)c(C2CCN([C@@H]3COC4(C3)CN(c3nnco3)C4)CC2)cc1F
28

What about Fc1ccc(OC[C@H]2CCOC2)c(C2CCN([C@@H]3COC4(C3)CN(c3nncs3)C4)CC2)c1 ?
43

What about CC(C)(O)CCOc1ccc(F)cc1C1CCN([C@@H]2COC3(C2)CN(c2nncs2)C3)CC1 ?
25

What about Fc1cc(O[C@@H]2CCOC2)c(C2CCN([C@@H]3COC4(C3)CN(c3nncs3)C4)CC2)cc1F ?
34

----------
molecular target: Cloned human M1 receptor (CHRM1) (Homo sapiens, UniProt P11229); construct: expressed in transfected cells; host or cells: HEK293; assay: CHRM1 Ca++ Flux Assay (HEK293 M1 cells, agonist mode); format: cell-based; details: Percent Activity (PA), read-out: M1 FDSS PA %
Give measured Emax for each item. Keep answers brief.
Report as a plain number; the unit % is understood.

Observed Emax on Cloned human M1 receptor (CHRM1) (Homo sapiens, UniProt P11229) for CC1(COc2ccc(F)cc2C2CCN([C@@H]3COC4(C3)CN(c3nnco3)C4)CC2)COC1 , please.
97

What about c1ccc(C2CCN([C@@H]3COC4(C3)CN(c3ncco3)C4)CC2)c(C2CCOCC2)c1 ?
72

What about Fc1ccc(OC[C@H]2CCCO2)c(C2CCN([C@@H]3COC4(C3)CN(c3nnco3)C4)CC2)c1 ?
7

What about Cc1nc(COc2ccccc2C2CCN([C@@H]3COC4(C3)CN(c3nncs3)C4)CC2)no1 ?
106

What about c1ccc(C2CCN([C@@H]3COC4(C3)CN(c3ncco3)C4)CC2)c(OC2COC2)c1 ?
79

What about Fc1ccc(OC[C@H]2COCCO2)c(C2CCN([C@@H]3COC4(C3)CN(c3nncs3)C4)CC2)c1 ?
96

What about COCCOc1ccc(F)cc1C1CCN([C@@H]2COC3(C2)CN(c2nnco2)C3)CC1 ?
75

What about Fc1ccc(OC[C@@H]2CCOC2)c(C2CCN([C@@H]3COC4(C3)CN(c3nnco3)C4)CC2)c1 ?
72

----------
target: Cloned human M1 receptor (CHRM1) (Homo sapiens, UniProt P11229); assay: CHRM1 Ca++ Flux Assay (HEK293 M1 cells, agonist mode); conditions: geometric mean if tested more than once, read-out: M1 FDSS EC50
pEC50: −log10 of the molar value.
Use 6 as the dividing line for pEC50, with the line itself on the Satisfied side and lower values as Not satisfied.

Form field: pEC50 at least 6? Entry: Fc1ccc(OC2CC3(COC3)C2)c(C2CCN([C@@H]3COC4(C3)CN(c3ncon3)C4)CC2)c1
Not satisfied

What about Fc1ccc(O[C@H]2CCCOC2)c(C2CCN([C@@H]3COC4(C3)CN(c3nnco3)C4)CC2)c1 (single isomer, unassigned) [Example 2Q] ?
Not satisfied

What about Fc1ccc([C@H]2CCOC2)c(C2CCN([C@@H]3COC4(C3)CN(c3nnco3)C4)CC2)c1 (single isomer, unassigned) [Example 3F] ?
Satisfied

What about c1ccc(C2CCN([C@@H]3COC4(C3)CN(c3ncco3)C4)CC2)c(C2CCOCC2)c1 ?
Not satisfied

----------
biological target: human cloned CHRM2 receptor (Homo sapiens, UniProt P08172); construct: expressed in transfected cells; host or cells: CHO-K1 (M2_CHO); test: CHRM2 Ca++ Flux Assay (M2_CHO cells, agonist mode); assay type: cell-based; conditions: Percent Activity (PA) measured to EC100 of Carbachol; M2 CHO cells; read-out: M2 FDSS PA %
Property label: Emax (%)
Report as a plain number; the unit % is understood.

Value lookup for Emax; key = Fc1ccc(OC2CC3(COC3)C2)c(C2CCN([C@@H]3COC4(C3)CN(c3nnco3)C4)CC2)c1 [Example 2L]
14

What about Fc1cc(F)c(O[C@@H]2CCOC2)c(C2CCN([C@@H]3COC4(C3)CN(c3nnco3)C4)CC2)c1 [Example 2CC] ?
37

What about Fc1ccc(OCC2COC2)c(C2CCN([C@@H]3COC4(C3)CN(c3nnco3)C4)CC2)c1 [Example 2H] ?
60

What about COc1ccc(F)cc1C1CCN([C@@H]2COC3(C2)CN(c2nnco2)C3)CC1 [Example 1V] ?
35

What about Fc1ccc(O[C@@H]2CCOC2)c(C2CCN([C@@H]3COC4(C3)CN(c3nncs3)C4)CC2)c1 [Example 5H] ?
40

What about c1ccc(C2CCN([C@@H]3COC4(C3)CN(c3ncco3)C4)CC2)c(O[C@@H]2CCOC2)c1 [Example 4F] ?
17

What about c1ccc(C2CCN([C@@H]3COC4(C3)CN(c3nnco3)C4)CC2)c(-c2ncco2)c1 [Example 1X] ?
25

What about Fc1ccc(OC[C@@H]2COCCO2)c(C2CCN([C@@H]3COC4(C3)CN(c3nncs3)C4)CC2)c1 [Example 5L] ?
32

What about COCCOc1ccc(F)cc1C1CCN([C@@H]2COC3(C2)CN(c2nnco2)C3)CC1 [Example 1L] ?
0

What about Fc1ccc(C2CCOCC2)c(C2CCN([C@@H]3COC4(C3)CN(c3nnco3)C4)CC2)c1 [Example 3D] ?
48

What about Cc1cc(COc2ccc(F)cc2C2CCN([C@@H]3COC4(C3)CN(c3nnco3)C4)CC2)on1 [Example 2G] ?
55

What about Fc1ccc(O[C@H]2CCOC2)c(C2CCN([C@@H]3COC4(C3)CN(c3nncs3)C4)CC2)c1 [Example 5O] ?
33

What about COc1ccc(F)cc1C1CCN([C@@H]2COC3(C2)CN(c2ncco2)C3)CC1 [Example 4I] ?
0

What about COC(C)(C)CCOc1ccc(F)cc1C1CCN([C@@H]2COC3(C2)CN(c2nncs2)C3)CC1 [Example 5N] ?
38

What about COCCOc1ccc(F)cc1C1CCN([C@@H]2COC3(C2)CN(c2ncns2)C3)CC1 [Example 5D] ?
0

What about Fc1ccc(O[C@@H]2CCOC2)c(C2CCN([C@@H]3COC4(C3)CN(c3nnco3)C4)CC2)c1 [Example 1D] ?
50

What about Fc1ccc(OCC2CCOCC2)c(C2CCN([C@@H]3COC4(C3)CN(c3nnco3)C4)CC2)c1 [Example 1J] ?
35

What about Fc1ccc(OC2CC3(COC3)C2)c(C2CCN([C@H]3COC4(C3)CN(c3nnco3)C4)CC2)c1 [Example 7A] ?
0

What about Fc1ccc(OC[C@H]2CCOC2)c(C2CCN([C@@H]3COC4(C3)CN(c3nnco3)C4)CC2)c1 [Example 1I] ?
32

What about COc1cc(F)ccc1C1CCN([C@@H]2COC3(C2)CN(c2ncns2)C3)CC1 [Example 5E] ?
0

What about Fc1ccc(OCC2C3COCC32)c(C2CCN([C@@H]3COC4(C3)CN(c3nnco3)C4)CC2)c1 (stereo partly shown) [Example 2Z] ?
24

What about COc1ccccc1C1CCN([C@@H]2COC3(C2)CN(c2ncns2)C3)CC1 [Example 5B] ?
0

What about Fc1ccc(OCc2ncccn2)c(C2CCN([C@@H]3COC4(C3)CN(c3nnco3)C4)CC2)c1 [Example 2I] ?
35

What about Fc1ccc(OC2COC2)c(C2CCN([C@@H]3COC4(C3)CN(c3ncon3)C4)CC2)c1 [Example 6B] ?
38

What about Fc1ccc(OC2CCOCC2)c(C2CCN([C@@H]3COC4(C3)CN(c3nnco3)C4)CC2)c1 [Example 1G] ?
35

What about Fc1ccc(OC2CCOCC2)c(C2CCN([C@@H]3COC4(C3)CN(c3nncs3)C4)CC2)c1 [Example 5J] ?
46

What about Fc1ccc(C2CCOCC2)c(C2CCN([C@@H]3COC4(C3)CN(c3ncco3)C4)CC2)c1 [Example 4W] ?
21

What about COc1ccccc1C1CCN([C@@H]2COC3(C2)CN(c2nncs2)C3)CC1 [Example 5R] ?
18

What about Fc1cc(OCC2COC2)c(C2CCN([C@@H]3COC4(C3)CN(c3ncco3)C4)CC2)cc1F [Example 4O] ?
31

What about c1ccc(C2CCN([C@@H]3COC4(C3)CN(c3nnco3)C4)CC2)c(OC2COC2)c1 [Example 1P] ?
51

What about CC(C)(O)COc1ccc(F)cc1C1CCN([C@@H]2COC3(C2)CN(c2nnco2)C3)CC1 [Example 1U] ?
0

Origin of values: patent US11485742B2
